# targetDesc: wild-type EGFR (Homo sapiens)
# Sequence (P00533 25-1210): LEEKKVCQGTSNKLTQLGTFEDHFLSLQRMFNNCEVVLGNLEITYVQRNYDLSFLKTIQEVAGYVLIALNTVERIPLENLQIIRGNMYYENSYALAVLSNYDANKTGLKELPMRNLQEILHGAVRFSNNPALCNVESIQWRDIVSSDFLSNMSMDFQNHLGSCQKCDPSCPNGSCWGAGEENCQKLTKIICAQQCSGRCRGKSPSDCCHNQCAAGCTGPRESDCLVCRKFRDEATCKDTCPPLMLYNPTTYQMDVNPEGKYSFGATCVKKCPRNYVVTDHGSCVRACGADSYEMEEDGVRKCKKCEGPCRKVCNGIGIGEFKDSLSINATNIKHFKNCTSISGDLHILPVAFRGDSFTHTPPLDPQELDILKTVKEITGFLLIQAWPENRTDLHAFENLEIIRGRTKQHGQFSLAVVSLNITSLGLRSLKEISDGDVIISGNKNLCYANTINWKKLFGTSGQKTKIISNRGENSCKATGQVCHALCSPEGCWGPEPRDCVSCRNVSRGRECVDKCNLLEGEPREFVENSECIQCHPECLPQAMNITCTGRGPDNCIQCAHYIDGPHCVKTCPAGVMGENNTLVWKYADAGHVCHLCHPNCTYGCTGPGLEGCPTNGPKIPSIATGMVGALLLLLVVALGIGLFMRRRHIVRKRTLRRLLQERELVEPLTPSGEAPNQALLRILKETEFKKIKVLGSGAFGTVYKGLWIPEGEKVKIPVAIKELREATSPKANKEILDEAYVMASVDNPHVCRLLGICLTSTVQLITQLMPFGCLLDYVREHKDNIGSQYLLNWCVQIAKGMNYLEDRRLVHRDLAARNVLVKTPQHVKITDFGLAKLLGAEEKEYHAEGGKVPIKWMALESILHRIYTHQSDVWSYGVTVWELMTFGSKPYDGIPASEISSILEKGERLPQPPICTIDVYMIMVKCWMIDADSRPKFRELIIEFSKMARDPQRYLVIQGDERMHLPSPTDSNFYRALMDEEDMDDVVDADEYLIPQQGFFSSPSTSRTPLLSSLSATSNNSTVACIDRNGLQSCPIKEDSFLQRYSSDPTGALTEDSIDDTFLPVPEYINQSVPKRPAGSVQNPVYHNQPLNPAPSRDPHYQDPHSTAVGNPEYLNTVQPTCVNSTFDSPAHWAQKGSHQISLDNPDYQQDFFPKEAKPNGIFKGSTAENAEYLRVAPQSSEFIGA
# testDescription: EGFR kinase assay (ELISA)
# setupConditions: concentration 0.3 nM; one value per replicate column; 0.0003 µM
measuredQuantity: Inhibition

compound: COCCOc1cc2ncnc(Nc3cccc(-c4cn(-c5ccc(C)cc5O)nn4)c3)c2cc1OCCOC
Inhibition: 10.2916

1 = COCCOc1cc2ncnc(Nc3cccc(-c4cn(-c5ccc(OC)cc5OC)nn4)c3)c2cc1OCCOC
2 = COCCOc1cc2ncnc(Nc3cccc(-c4cn(Cc5ccccc5I)nn4)c3)c2cc1OCCOC [e2]
Query block: Hi team, can someone confirm which has the larger Inhibition: 1 or 2 ? Thanks. // respond with label for picked entry
Result block: 1
(1: 12.4795, 2: 7.792)
